Molecular target: hCA IX (Homo sapiens, UniProt Q16790)
Experiment: hCA IX inhibition, stopped-flow assay
Assay type: biochemical
Conditions: selectivity index (SI), ratio of Ki hCA I to Ki hCA IX
parameter.measured: Selectivity Analysis hCA I/IX
Answers are plain numbers.

Worked set:
// sample `NS(=O)(=O)c1ccc(CCn2c(SCC(=O)NN=Cc3ccccc3[N+](=O)[O-])nc3ccccc3c2=O)cc1` , its Selectivity Analysis hCA I/IX was 16.95

// sample `NS(=O)(=O)c1ccc(CCn2c(SCC(=O)NN=Cc3ccc(Cl)c(Cl)c3)nc3ccccc3c2=O)cc1` , its Selectivity Analysis hCA I/IX was 52.5

// sample `CN(C)c1ccc(C=NNC(=O)CSc2nc3ccccc3c(=O)n2CCc2ccc(S(N)(=O)=O)cc2)cc1` , its Selectivity Analysis hCA I/IX was 6.56

// sample `NS(=O)(=O)c1ccc(CCn2c(SCC(=O)NN=Cc3ccccc3F)nc3ccccc3c2=O)cc1` , its Selectivity Analysis hCA I/IX was 13.91

// sample `CC(=NNC(=O)CSc1nc2ccccc2c(=O)n1CCc1ccc(S(N)(=O)=O)cc1)c1ccc(Cl)cc1` , its Selectivity Analysis hCA I/IX was 8.67

Please give Selectivity Analysis hCA I/IX for each item listed below.
1. CC(=NNC(=O)CSc1nc2ccccc2c(=O)n1CCc1ccc(S(N)(=O)=O)cc1)c1ccccn1
2. NS(=O)(=O)c1ccc(CCn2c(SCC(=O)NN=Cc3ccc([N+](=O)[O-])cc3)nc3ccccc3c2=O)cc1

Resp:
0.77
23.62

----------
Target: UniProtKB P00918
Test: hCA II inhibition, stopped-flow assay
Assay type: biochemical
Details: stopped-flow technique; mean from three different assays, errors ±5–10%
parameter.measured: log10(Ki) (log10 of the value in nM)
Note: values are log10 of Ki expressed in nM.

Sample NS(=O)(=O)c1ccc(CCn2c(SCC(=O)NN=Cc3ccc(Cl)cc3Cl)nc3ccccc3c2=O)cc1 [Compound 7] , system: UniProtKB P00918. Its log10(Ki) is 2.64

Please give log10(Ki) for each item listed below.
1. CC(=NNC(=O)CSc1nc2ccccc2c(=O)n1CCc1ccc(S(N)(=O)=O)cc1)c1ccccc1 [Compound 17]
2. CC(=NNC(=O)CSc1nc2ccccc2c(=O)n1CCc1ccc(S(N)(=O)=O)cc1)c1ccccc1N [Compound 18]
3. CC(=NNC(=O)CSc1nc2ccccc2c(=O)n1CCc1ccc(S(N)(=O)=O)cc1)c1ccc(N)cc1 [Compound 19]
4. NS(=O)(=O)c1ccc(CCn2c(SCC(=O)NN=Cc3ccc(Cl)cc3)nc3ccccc3c2=O)cc1 [Compound 6]
5. NS(=O)(=O)c1ccc(CCn2c(SCC(=O)N/N=C/c3ccccc3)nc3ccccc3c2=O)cc1 [Compound 4]

Resp:
1. 1.83
2. 1.55
3. 1.77
4. 2.10
5. 1.72

Sample NS(=O)(=O)c1ccc(CCn2c(SCC(=O)NN=Cc3ccccc3Cl)nc3ccccc3c2=O)cc1 [Compound 5] , system: UniProtKB P00918. Its log10(Ki) is 2.40

----------
Molecular target: hCA II (Homo sapiens)
Experiment: hCA II inhibition, stopped-flow assay
Type: biochemical
Settings: stopped-flow technique; mean from three different assays, errors ±5–10%
parameter.measured: log10(Ki) (log10 of the value in nM)
Note: values are log10 of Ki expressed in nM.

// sample CC(=NNC(=O)CSc1nc2ccccc2c(=O)n1CCc1ccc(S(N)(=O)=O)cc1)c1cccc(Cl)c1 [Compound 22] , its log10(Ki) was 2.53

// sample CC(=NNC(=O)CSc1nc2ccccc2c(=O)n1CCc1ccc(S(N)(=O)=O)cc1)c1ccccn1 [Compound 26] , its log10(Ki) was 1.36

// sample CC(=NNC(=O)CSc1nc2ccccc2c(=O)n1CCc1ccc(S(N)(=O)=O)cc1)c1ccc(Br)cc1 [Compound 20] , its log10(Ki) was 2.84

Please give log10(Ki) for each item listed below.
1. CC(=NNC(=O)CSc1nc2ccccc2c(=O)n1CCc1ccc(S(N)(=O)=O)cc1)c1cccnc1 [Compound 27]
2. NS(=O)(=O)c1ccc(CCn2c(SCC(=O)NN=Cc3ccc([N+](=O)[O-])cc3)nc3ccccc3c2=O)cc1 [Compound 14]
3. NS(=O)(=O)c1ccc(CCn2c(S)nc3ccccc3c2=O)cc1 [Compound 1]
4. NS(=O)(=O)c1ccc(CCn2c(SCC(=O)NN=Cc3c(Cl)cccc3Cl)nc3ccccc3c2=O)cc1 [Compound 9]

Resp:
1. 1.03
2. 2.34
3. -0.21
4. 2.22

----------
Molecular target: hCA IX (Homo sapiens)
Assay: hCA IX inhibition, stopped-flow assay
Type: biochemical
Conditions: stopped-flow technique; mean from three different assays, errors ±5–10%
Ki vs 50 nM: less than gives true (1); not less than gives false (0).

As a guide, the following entries are already answered.
Req: Could you please tell me whether Ki recorded for NS(=O)(=O)c1ccc(CCn2c(SCC(=O)NN=Cc3ccc([N+](=O)[O-])cc3)nc3ccccc3c2=O)cc1 [Compound 14] is less than 50 nM?
Resp: true (1)

Req: Could you please tell me whether Ki recorded for CC(=NNC(=O)CSc1nc2ccccc2c(=O)n1CCc1ccc(S(N)(=O)=O)cc1)c1cccc(Cl)c1 [Compound 22] is less than 50 nM?
Resp: false (0)

Req: Could you please tell me whether Ki recorded for CC(=NNC(=O)CSc1nc2ccccc2c(=O)n1CCc1ccc(S(N)(=O)=O)cc1)c1ccc(Br)cc1 [Compound 20] is less than 50 nM?
Resp: false (0)

Req: Could you please tell me whether Ki recorded for NS(=O)(=O)c1ccc(CCn2c(SCC(=O)NN=Cc3cccnc3)nc3ccccc3c2=O)cc1 [Compound 16] is less than 50 nM?
Resp: true (1)

Req: Could you please tell me whether Ki recorded for CC(=NNC(=O)CSc1nc2ccccc2c(=O)n1CCc1ccc(S(N)(=O)=O)cc1)c1cccnc1 [Compound 27] is less than 50 nM?
Resp: true (1)

Next:
Req: Could you please tell me whether Ki recorded for CC(=NNC(=O)CSc1nc2ccccc2c(=O)n1CCc1ccc(S(N)(=O)=O)cc1)c1ccc(Cl)cc1 [Compound 23] is less than 50 nM?
Resp: false (0)

Req: Could you please tell me whether Ki recorded for NS(=O)(=O)c1ccc(CCn2c(SCC(=O)NN=Cc3ccccc3F)nc3ccccc3c2=O)cc1 [Compound 10] is less than 50 nM?
Resp: true (1)

Req: Could you please tell me whether Ki recorded for CC(=NNC(=O)CSc1nc2ccccc2c(=O)n1CCc1ccc(S(N)(=O)=O)cc1)c1ccc(C)cc1 [Compound 25] is less than 50 nM?
Resp: true (1)

Req: Could you please tell me whether Ki recorded for NNC(=O)CSc1nc2ccccc2c(=O)n1CCc1ccc(S(N)(=O)=O)cc1 [Compound 3] is less than 50 nM?
Resp: false (0)

Req: Could you please tell me whether Ki recorded for CC(=NNC(=O)CSc1nc2ccccc2c(=O)n1CCc1ccc(S(N)(=O)=O)cc1)c1ccccc1N [Compound 18] is less than 50 nM?
Resp: true (1)

Req: Could you please tell me whether Ki recorded for NS(=O)(=O)c1ccc(CCn2c(SCC(=O)NN=Cc3ccccc3[N+](=O)[O-])nc3ccccc3c2=O)cc1 [Compound 13] is less than 50 nM?
Resp: false (0)

Req: Could you please tell me whether Ki recorded for NS(=O)(=O)c1ccc(CCn2c(SCC(=O)N/N=C/c3ccccc3)nc3ccccc3c2=O)cc1 [Compound 4] is less than 50 nM?
Resp: false (0)

Req: Could you please tell me whether Ki recorded for NS(=O)(=O)c1ccc(CCn2c(SCC(=O)NN=Cc3ccc(Cl)cc3Cl)nc3ccccc3c2=O)cc1 [Compound 7] is less than 50 nM?
Resp: true (1)

Req: Could you please tell me whether Ki recorded for NS(=O)(=O)c1ccc(CCn2c(SCC(=O)NN=Cc3ccc(F)cc3)nc3ccccc3c2=O)cc1 [Compound 11] is less than 50 nM?
Resp: true (1)

Req: Could you please tell me whether Ki recorded for Cc1ccccc1C=NNC(=O)CSc1nc2ccccc2c(=O)n1CCc1ccc(S(N)(=O)=O)cc1 [Compound 12] is less than 50 nM?
Resp: true (1)

----------
Molecular target: hCA IX (Homo sapiens)
Assay: hCA IX inhibition, stopped-flow assay
Type: biochemical
Conditions: selectivity index (SI), ratio of Ki hCA II to Ki hCA IX
parameter.measured: Selectivity Analysis hCA II/IX
Give bare numbers.

Please give Selectivity Analysis hCA II/IX for each item listed below.
1. NS(=O)(=O)c1ccc(CCn2c(SCC(=O)NN=Cc3ccccc3Cl)nc3ccccc3c2=O)cc1
2. NS(=O)(=O)c1ccc(CCn2c(SCC(=O)NN=Cc3ccc([N+](=O)[O-])cc3)nc3ccccc3c2=O)cc1
3. CC(=NNC(=O)CSc1nc2ccccc2c(=O)n1CCc1ccc(S(N)(=O)=O)cc1)c1ccccc1
4. CC(=NNC(=O)CSc1nc2ccccc2c(=O)n1CCc1ccc(S(N)(=O)=O)cc1)c1ccccc1Cl

Resp:
1. 9.51
2. 8.20
3. 1.21
4. 7.15

Please give Selectivity Analysis hCA II/IX for each item listed below.
1. NS(=O)(=O)c1ccc(CCn2c(SCC(=O)NN=Cc3ccc(Cl)cc3)nc3ccccc3c2=O)cc1
2. NS(=O)(=O)c1ccc(CCn2c(SCC(=O)NN=Cc3ccc(Cl)cc3Cl)nc3ccccc3c2=O)cc1
3. CC(=NNC(=O)CSc1nc2ccccc2c(=O)n1CCc1ccc(S(N)(=O)=O)cc1)c1cccnc1
4. NS(=O)(=O)c1ccc(CCn2c(SCC(=O)NN=Cc3ccc(F)cc3)nc3ccccc3c2=O)cc1

Resp:
1.42
19.67
0.32
3.21
